target: T1, human LTβR extracellular domain fused with an Fc fragment at the C-terminus (human, UniProt P36941 31-227); assay: phage ELISA
T1 construct: extracellular domain; Bought; also called hLTβR; not shown: Fc fragment at the C-terminus
T1 sequence (P36941 31-227): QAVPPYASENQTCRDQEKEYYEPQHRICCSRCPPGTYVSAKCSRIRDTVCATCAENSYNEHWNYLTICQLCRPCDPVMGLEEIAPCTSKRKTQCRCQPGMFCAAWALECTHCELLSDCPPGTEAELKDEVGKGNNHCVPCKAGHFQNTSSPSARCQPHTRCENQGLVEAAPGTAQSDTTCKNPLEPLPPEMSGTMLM

binder	binding result
LIGHT-85 (ligand, Printed mutations: Q117E, S160G, T161S, L220S, E222S, L227T; Soluble protein carries an N-terminal His tag) DGPAGSWEQLIQERRSHEVNPAAHLTGANSSLTGSGGPLLWETELGLAFLRGLSYHDGALVVTKAGYYYIYSKVQLGGVGCPLGLAGSITHGLYKRTPRYPEELELLVSQQSPCGRATSSSRVWWDSSFLGGVVHLEAGEKVVVRVSDSRLVRTRDGTRSYFGAFMV	binds
LIGHT-56 (ligand, Printed mutations: Q117E, L220T, L227T; Soluble protein carries an N-terminal His tag) DGPAGSWEQLIQERRSHEVNPAAHLTGANSSLTGSGGPLLWETELGLAFLRGLSYHDGALVVTKAGYYYIYSKVQLGGVGCPLGLASTITHGLYKRTPRYPEELELLVSQQSPCGRATSSSRVWWDSSFLGGVVHLEAGEKVVVRVTDERLVRTRDGTRSYFGAFMV	binds
